TARGET DESC: T1, human Trop-2 expressed on cell surface (human, UniProt P09758 27-323)
T1 sequence (looked up): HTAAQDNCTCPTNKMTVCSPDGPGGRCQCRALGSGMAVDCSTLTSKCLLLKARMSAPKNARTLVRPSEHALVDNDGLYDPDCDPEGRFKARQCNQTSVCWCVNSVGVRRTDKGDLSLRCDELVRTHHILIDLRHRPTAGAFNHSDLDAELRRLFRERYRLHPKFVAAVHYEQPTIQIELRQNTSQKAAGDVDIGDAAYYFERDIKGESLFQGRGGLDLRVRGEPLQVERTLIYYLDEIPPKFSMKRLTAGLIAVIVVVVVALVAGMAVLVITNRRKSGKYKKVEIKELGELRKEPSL
MEASUREMENT NOTES: cell-based or functional assay
PROPERTY: Internalization %, MCF-7, 0.5 µg/ml, 1 h (%)

1. 10A9-2 (antibody, V domains shown) VH: QSLEESGGDLVQPGASLTLTCKASGFDLNNYAMLWVRQAPGKGLEWIGSIYISGGTTYFASWATGRFAISKTSSTTVTLQMTSLTAADTATYFCARDDGTTSYYLNLWGPGTLVTVSS VL: YDMTQTPASVSAAVGGTVTIKCQASEDIYSLLAWYQQKPGQPPKLLIYGASNLESGVPSRFKGSGSGTEYTLTISDLEADDAATYYCQQAYTIGNIDNAFGGGTEVVVK; 31
2. 62E3 (antibody, V domains shown, Rabbit-derived clone; LEM construct: VH + rabbit IgG CH1 + human IgG1 CH2-CH3) VH: QEQLKESGGGLVQPGGSLKLSCKASGFDFNEYGVSWVRQAPGKGLEWIAYIYPAFHNTYYATWVNGRFTISSHNAQNTLYLQLNTLTAADTATYFCARDAGTTDYNFNLWGPGTLVTVSS VL: DVVMTQTASPVSAAVGGTVTIKCQASEDIESYLAWYQQKPGQPPKLLIYEASKLASGVSSRFSGSGYGTEFTLTISGVECADAATYYCQQALTIGNVDNPFGGGSEVVVK; 21
3. 74F11/15F5 (antibody, human IgG1, V domains shown, LEM construct: VH + rabbit IgG CH1 + human IgG1 CH2-CH3) VH: QEQLKESGGGLVQPGGSLKLSCKASGFDFNNYGMSWVRQAPGKGLEWIAYIYPAFHNTYYANWVNGRFTISSDNAQNTVDLQLNSLTAADTATYFCARDAGSTDYNFNLWGPGTLVTVSS VL: DVVMTQTPASVEAAVGGTVTIKCQASEDIERYLAWYQQKPGQPPKLLIYEASKLPSGVSSRFSGSGYGTEFTLTISGVECADAATYYCQQALTIGYVDNPFGGGSEVVVK; 22
